Readings of composite z-score for the listed molecules
Assayed Target: Epidermal growth factor receptor (Homo sapiens)
Assay Name: EGFR binders on small-molecule microarrays, primary screen, biochemical, small-molecule microarray, 635 nm fluorescence (AID 1104);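 further: score merges 667 nm emission intensity with spot signal to noise over triplicate slides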
Experimental Parameters: EGFR binding, higher = more signal

| Molecule | composite z-score |
| --- | --- |
| COc1ccc([Si](C)(C)[C@H]2[C@H](CC(=O)N3Cc4ccccc4C[C@H]3CO)O[C@@]3(C(=O)N(Cc4ccc(N5CCC5=O)cc4)c4ccccc43)[C@@H]2C)cc1 | 1.11 |
| C=CCC(OC(C)=O)[C@@H]1[C@@H](N(Cc2cccc3ccccc23)C(=O)c2ccc(-c3ccccc3)cc2)c2cc(OCCCO)ccc2N1C(=O)Cc1ccc(OC)cc1 (some centres undefined) | 0.23 |
| C=CCOC(=O)[C@H]1[C@@H]2C(=O)O[C@@H](c3ccccc3)[C@@H](c3ccccc3)N2[C@@H](c2ccc(OCCOC(=O)[C@@H]3C[C@@H]4C(=O)N5CCC[C@H]5C(=O)N4[C@@H]3c3cccc(OCCO)c3)cc2)[C@]12C(=O)Nc1ccccc12 | 0.5 |
| O=C1[C@H]2C=C(Br)[C@H](C[C@@H]2c2ccccc2)[C@@]12CO2 | 0.513 |
| COC(=O)[C@@]1(Cc2ccc(F)cc2)[C@H]2c3cc(C(=O)N(C)C)n(Cc4nc5ccccc5[nH]4)c3C[C@H]2CN1C(=O)c1ccccc1 | 0.314 |
| CN(C)CCCC[C@@H]1NC(=O)[C@H]2C[C@@H](C(=O)NCCCCCNC(=O)CS)[C@@H](c3cccc(OCCO)c3)N2C1=O | 0.227 |
| CC(C)C[C@H]1NC(=O)[C@@]23C(=O)N[C@@H](Cc4ccccc4)C2[C@H](C)[C@@]2(C)O[C@H]2C3/C=C/C/C=C\CNC(=O)[C@H](Cc2ccccc2)NC1=O (some centres undefined) | 0.447 |
| COC(=O)[C@@]1(Cc2ccc(F)cc2)[C@H]2c3cc(C(=O)N(C)C)n(CC4CC4)c3C[C@H]2CN1C(=O)c1ccccc1 | 0.463 |
| COCCOC(=O)N1C(=O)[C@@]2(c3cc(C#CC4=CCCCC4)ccc31)[C@H](C(=O)Nc1nc3ccccc3s1)[C@H]1C(=O)O[C@H](c3ccccc3)[C@H](c3ccccc3)N1[C@@H]2c1ccccc1OCCO | 0.765 |
| CC(CO)N1C(=O)[C@@H]2C3C(=O)OCCC/C=C\[C@H]3OC23C=CCN(c2ccc4ccccc4c2)C(=O)[C@@H]13 (some centres undefined) | -1.04 |
| CCCCCCC#C[Si](O[C@H](c1ccccc1)c1cn([C@H](CO)Cc2ccccc2)nn1)(C(C)C)C(C)C | -0.525 |
| O=C1OCCC=C[C@H]2OC34C=CCN(CCN5CCOCC5)C(=O)[C@H]3N(CCCCCCO)C(=O)[C@@H]4C12 (some centres undefined) | -0.71 |
| CN1C(=O)C2C=CC(C(O)C3=C[C@H]4C[C@@H](C3)C4(C)C)N(Nc3ccccc3)C2C1=O (some centres undefined) | 0.356 |
| O=C1OCC=C[C@H]2OC34C=CCN(CCN5CCOCC5)C(=O)[C@H]3N(CCCO)C(=O)[C@@H]4[C@@H]12 (some centres undefined) | -0.0604 |

====

Assay Name: inhibitors of hydroxyurea-induced Chk1 phosphorylation, primary screen, imaging, HeLa, phospho-Chk1 antibody, percent positive cells (AID 1186)
Experimental Parameters: hydroxyurea-induced phospho-Chk1 immunofluorescence imaging, higher = more signal
Measure Name: z-score

| Molecule | Measure Name | Measured |
| --- | --- | --- |
| COc1cc(CO)cc(I)c1O[C@H]1C=C(C(=O)NCCO)C[C@@H](N(CCN2CCOCC2)C(=O)C2CCOC2)[C@@H]1O (some centres undefined) | z-score | -0.182 |
| COCCCNC(=O)C1N=C(c2ccc(OCCCO)cc2)N(c2ccccc2)O1 (centres undefined) | z-score | -0.0836 |
| O=C1c2ccccc2[C@](Cc2ccccc2I)(C(=O)NC2CC2)[C@H](c2ccc(CO)cc2)N1C1CCCCC1 | z-score | -0.199 |
| C#CCNC(=O)[C@H](Cc1ccccc1)NC(=O)CCC(=O)O | z-score | -0.482 |
| CCOc1cc(C(O)C2C=CC3C(=O)N(c4ccccc4)C(=O)C3N2Nc2ccccc2)ccc1O (centres undefined) | z-score | -0.516 |
| C=CCOC(=O)[C@H]1[C@@H]2C(=O)O[C@@H](c3ccccc3)[C@@H](c3ccccc3)N2[C@@H](c2ccc(OCCOC(=O)[C@@H]3C[C@@H]4C(=O)N[C@@H](CCCCN(C)C)C(=O)N4[C@@H]3c3ccc(O)cc3)cc2)[C@]12C(=O)Nc1ccc(I)cc12 | z-score | 0.936 |
| CN1C(=O)C2C=CC(C(O)c3ccc(I)cc3)N(N3CCCCC3)C2C1=O (centres undefined) | z-score | 0.151 |
| COc1ccc(C#Cc2ccc3c(c2)[C@]2(C(=O)N3)[C@H](c3ccccc3OCCO)N3[C@H](c4ccccc4)[C@H](c4ccccc4)OC(=O)[C@H]3[C@@H]2C(=O)O)cc1 | z-score | -0.331 |
| COC(=O)c1c(CC[C@@H](CO)NC(=O)N2CCC[C@H]2Cn2cc(-c3ccccn3)nn2)oc(C(C)=O)c1C(=O)OC | z-score | -0.828 |
| CC(C)(C)OC(=O)CC[C@@]1(C(=O)NCCN2CCOCC2)N=C(c2ccc(OCCCO)cc2)O[C@@H]1c1ccccc1N=[N+]=[N-] | z-score | 0.17 |
| O=C1NC(=O)C2C1C=CC(C(O)c1cccc3ccccc13)N2Nc1ccccn1 (centres undefined) | z-score | -0.146 |
| [N-]=[N+]=Nc1ccccc1C[C@@]1(C(=O)NCCN2CCOCC2)N=C(c2ccc(OCCCO)cc2)O[C@@H]1c1ccccc1 | z-score | -0.785 |
| O=C1OCCC/C=C\[C@H]2OC34C=CCN(CCN5CCOCC5)C(=O)[C@H]3N(CCCO)C(=O)[C@@H]4C12 (some centres undefined) | z-score | 0.697 |
| CN(C)C(=O)[C@]1(Cc2ccccc2CN=[N+]=[N-])N=C(c2ccc(OCCCO)cc2)O[C@@H]1c1ccccc1CN=[N+]=[N-] | z-score | -0.123 |
| COCCOC(=O)N1C(=O)[C@@]2(c3cc(C#CC4(O)CCCCCC4)ccc31)[C@H](c1ccc(O)cc1)N1[C@H](c3ccccc3)[C@H](c3ccccc3)OC(=O)[C@H]1[C@@H]2C(=O)Nc1nc2ccccc2s1 | z-score | 0.227 |
| CN(C)CCCNC(=O)[C@@]1(c2ccc([N+](=O)[O-])cc2)CC(=O)N(C2CCCCC2)[C@@H]1c1ccc(CO)cc1 | z-score | -0.196 |
| O=C1O[C@H](c2ccccc2)[C@H](c2ccccc2)N2[C@H]1[C@@H](C(=O)Nc1nc3ccccc3s1)[C@]1(C(=O)Nc3ccc(C#CCCO)cc31)[C@H]2c1ccc(OCCO)cc1 | z-score | -0.239 |
| CCOC(=O)C[C@H]1[C@H](OC(=O)c2cc3ccccc3oc2=O)[C@@H](NC(=O)Cc2ccc(OC)cc2)c2cc(OCCCO)ccc2N1C(=O)c1ccccc1 | z-score | 0.907 |
| COc1ccc([C@H]2C[C@H]3C(Br)=C[C@@H]2C(=O)[C@]32CO2)cc1 | z-score | 0.0297 |

====

Assay Name: MM1S myeloma cell viability, profiling panel, resazurin fluorescence, basal, 24 h, PK04 Diversity Set (AID 1174);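 further: MM1S multiple myeloma cell line; test concentration not given here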
Experimental Parameters: higher = more signal, called active from +8 up or from −8 down
Measured z-score of individual entries

| Compound | z-score |
| --- | --- |
| C[C@]1(C(=O)NC2CC2)c2ccccc2C(=O)N(Cc2cc(C(F)(F)F)cc(C(F)(F)F)c2)[C@H]1c1ccc(CO)cc1 | 0.43 |
| COc1ccc([Si](C)(C)[C@@H]2[C@@H](CCO)O[C@]3(C(=O)N(Cc4ccc(N5C(=O)COc6ccccc65)cc4)c4ccccc43)[C@H]2C)cc1 | -2.01 |
| O=C1O[C@H](c2ccccc2)[C@H](c2ccccc2)N2[C@H]1[C@@H](C(=O)O)[C@]1(C(=O)Nc3ccc(C#CCCO)cc31)[C@H]2c1ccc(O)cc1 | 1.5 |
| CC(C)C[C@@H]1NC(=O)[C@H]2C[C@@H](C(=O)NCCCCCCN)[C@@H](c3ccc(O)cc3)N2C1=O | -0.403 |
| COC(=O)[C@@]1(Cc2ccc(F)cc2)[C@H]2c3cc(C(=O)N4CCCC4)n(Cc4ccc(C)o4)c3C[C@H]2CN1C(=O)c1ccccc1 | -6.17 |
| O=C1c2ccccc2[C@](Cc2ccccc2I)(C(=O)NC2CC2)[C@H](c2ccc(CO)cc2)N1Cc1ccccc1 | 0.414 |
| [N-]=[N+]=NCc1ccccc1[C@H]1OC(c2ccc(OCCCO)cc2)=N[C@@]1(Cc1ccccc1)C(=O)NCc1ccccc1 | -0.666 |
| CCOC(=O)[C@H]1C/C=C/C[C@H](C(=O)OCC)C(=O)O[C@H]2[C@@H](OC)O[C@H](CO)[C@@H](OC(=O)Nc3ccc(C#N)cc3)[C@@H]2OC1=O | -8.87 |
| COc1ccc([C@H]2C[C@H]3C(Br)=C[C@@H]2C(=O)[C@]32CO2)cc1 | -0.0566 |
| NC(=O)[C@@H]1[C@H]2C(=O)O[C@H](c3ccccc3)[C@H](c3ccccc3)N2[C@H](c2ccc(O)cc2)[C@@]12C(=O)Nc1ccc(C#CC3(O)CCCCCC3)cc12 | 0.475 |
| CCOC(=O)[C@H]1CC=C2CC1C(=O)N1CCC[C@@H]1[C@@H]2O[Si](C)(C)C(C)(C)C (stereo partly specified) | 0.425 |
